# Test system: SK-MES-1
# MEASUREMENT PROTOCOL: relative viability (nuclei count vs DMSO), 5 days (fraction); higher = more cells survive
# SETTINGS: first compound 0.08 µM
Reported values of relative viability for individual entries
TEST READOUT: relative viability

INSERT INTO assay_data (molecule, target_entity, test_readout, experimental_value) VALUES
  ('CCCCCCCCCCCC1=C(O)C(=O)C=C(O)C1=O [Embelin] + CCNC(=O)c1noc(-c2cc(C(C)C)c(O)cc2O)c1-c1ccc(CN2CCOCC2)cc1 [Luminespib] (partner 0.01 µM)', 'SK-MES-1', 'relative viability', 0.723),
  ('CCCCCCCCCCCC1=C(O)C(=O)C=C(O)C1=O [Embelin] + C[C@@H](Oc1cc(-c2cnn(C3CCNCC3)c2)cnc1N)c1c(Cl)ccc(F)c1Cl [Crizotinib] (partner 1 µM)', 'SK-MES-1', 'relative viability', 1.01),
  ('CCCCCCCCCCCC1=C(O)C(=O)C=C(O)C1=O [Embelin] + CC1(C)CCC(c2ccc(Cl)cc2)=C(CN2CCN(c3ccc(C(=O)NS(=O)(=O)c4ccc(N[C@H](CCN5CCOCC5)CSc5ccccc5)c(S(=O)(=O)C(F)(F)F)c4)cc3)CC2)C1 [Navitoclax] (partner 0.5 µM)', 'SK-MES-1', 'relative viability', 1.23),
  ('CCCCCCCCCCCC1=C(O)C(=O)C=C(O)C1=O [Embelin] + COc1cccc2cc(-c3nc([C@H]4CC[C@H](C(=O)O)CC4)n4ncnc(N)c34)[nH]c12 [OSI-027] (partner 0.5 µM)', 'SK-MES-1', 'relative viability', 0.648),
  ('CCCCCCCCCCCC1=C(O)C(=O)C=C(O)C1=O [Embelin] + COc1cc2c(Oc3ccc(NC(=O)C4(C(=O)Nc5ccc(F)cc5)CC4)cc3F)ccnc2cc1OCCCN1CCOCC1 [Foretinib] (partner 0.25 µM)', 'SK-MES-1', 'relative viability', 0.943);

----------
# System: NCI-H2085
# MEASUREMENT PROTOCOL: relative viability (nuclei count vs DMSO), 5 days (fraction); higher = more cells survive
# SETTINGS: first compound 4 µM
TEST READOUT: relative viability

INSERT INTO results (compound, experimental_value) VALUES
  ('COc1cc(N2CCC(C(N)=O)CC2)ccc1Nc1nc(N)c(Cl)c(Nc2ccccc2S(=O)(=O)C(C)C)n1 [HG-5-88-01] + CCNC(=O)c1noc(-c2cc(C(C)C)c(O)cc2O)c1-c1ccc(CN2CCOCC2)cc1 [Luminespib] (partner 0.01 µM)', 0.464),
  ('COc1cc(N2CCC(C(N)=O)CC2)ccc1Nc1nc(N)c(Cl)c(Nc2ccccc2S(=O)(=O)C(C)C)n1 [HG-5-88-01] + N=C(N)NC(=N)NCCc1ccccc1 [Phenformin] (partner 250 µM)', 0.395),
  ('COc1cc(N2CCC(C(N)=O)CC2)ccc1Nc1nc(N)c(Cl)c(Nc2ccccc2S(=O)(=O)C(C)C)n1 [HG-5-88-01] + NC(=O)Nc1cc(-c2cccc(F)c2)sc1C(=O)N[C@H]1CCCNC1 [AZD7762] (partner 0.2 µM)', 0.667),
  ('Clc1ccc(Nc2nnc(Cc3ccncc3)c3ccccc23)cc1 [Vatalanib] + C[C@]1(O)C[C@@H](c2nc(-c3ccc4ccc(-c5ccccc5)nc4c3)c3c(N)nccn32)C1 [Linsitinib] (partner 1 µM)', 0.886),
  ('C[C@@H]1CN(CC(=O)Nc2ccc3c(c2)Cc2cccc(-c4cc(=O)cc(N5CCOCC5)o4)c2S3)C[C@H](C)O1 + CC1(C)CCC(c2ccc(Cl)cc2)=C(CN2CCN(c3ccc(C(=O)NS(=O)(=O)c4ccc(N[C@H](CCN5CCOCC5)CSc5ccccc5)c(S(=O)(=O)C(F)(F)F)c4)cc3)CC2)C1 [Navitoclax] (partner 0.5 µM)', 0.827),
  ('COc1cc(N2CCC(C(N)=O)CC2)ccc1Nc1nc(N)c(Cl)c(Nc2ccccc2S(=O)(=O)C(C)C)n1 [HG-5-88-01] + Nc1ncn([C@H]2C[C@H](O)[C@@H](CO)O2)c(=O)n1 [Decitabine] (partner 2 µM)', 0.607),
  ('COc1cc(N2CCC(C(N)=O)CC2)ccc1Nc1nc(N)c(Cl)c(Nc2ccccc2S(=O)(=O)C(C)C)n1 [HG-5-88-01] + C[C@]1(O)C[C@@H](c2nc(-c3ccc4ccc(-c5ccccc5)nc4c3)c3c(N)nccn32)C1 [Linsitinib] (partner 1 µM)', 0.92),
  ('C[C@@H]1CN(CC(=O)Nc2ccc3c(c2)Cc2cccc(-c4cc(=O)cc(N5CCOCC5)o4)c2S3)C[C@H](C)O1 + CC(=O)c1c(C)c2cnc(Nc3ccc(N4CCNCC4)cn3)nc2n(C2CCCC2)c1=O [Palbociclib] (partner 0.5 µM)', 0.419);

Cited source: the supplement of paper PMC10307832
